For each of the compounds below, state its selectivity ratio.
Test method notes: Selectivity index, ratio of HC50 for hemolytic activity in sheep RBC to MIC for antibacterial activity against Staphylococcus aureus ATCC 29213
Format: toxicity
Condition summary: sheep red blood cells
The reply should be a number, written without any unit.

Q) Fill in the blank: the reported selectivity ratio of "C=CCc1cccc(Oc2ccc(C(=O)CC)cc2)c1OCCC[N+](C)(C)CC(=O)N(CCCC)CCCC.[Br-]" is ____.
A) 194

Q) Fill in the blank: the reported selectivity ratio of "C=CCc1cccc(Oc2ccc(C(=O)CC)cc2)c1OCCC[N+](C)(C)CC(=O)N(CCC)CCC.[Br-]" is ____.
A) 53.3

Q) Fill in the blank: the reported selectivity ratio of "C=CCc1cccc(Oc2ccc(C(=O)CC)cc2)c1OCCCC[N+](C)(C)CC(=O)N(CCC)CCC.[Br-]" is ____.
A) 29.1

Q) Fill in the blank: the reported selectivity ratio of "CCCCCCNC(=O)C[N+](C)(C)CCCOc1ccccc1Oc1ccc(C(=O)CC)cc1.[Br-]" is ____.
A) 134

Q) Fill in the blank: the reported selectivity ratio of "C=CCc1cccc(Oc2ccc(C(=O)CC)cc2)c1OCC[N+](C)(C)CC(=O)N(CCCC)CCCC.[Br-]" is ____.
A) 104

Q) Fill in the blank: the reported selectivity ratio of "C=CCc1cccc(Oc2ccc(C(=O)CC)cc2)c1OCC[N+](C)(C)CC(=O)NCC.[Br-]" is ____.
A) 15.9

Q) Fill in the blank: the reported selectivity ratio of "C=CCc1cccc(Oc2ccc(C(=O)CC)cc2)c1OCCCC[N+](C)(C)CC(=O)NCCCC.[Br-]" is ____.
A) 138

Q) Fill in the blank: the reported selectivity ratio of "C=CCc1cccc(Oc2ccc(C(=O)CC)cc2)c1OCC[N+](C)(C)CC(=O)N1CCCC1.[Br-]" is ____.
A) 17
